- measuredTarget: T1, rHuman EGF R/Fc Chimera, CF (R&D Systems Cat#344-ER) (human, UniProt P00533 25-645)
- T1 construct: Bought recombinant protein; also called epidermal growth factor receptor; Fc part of the bought chimera not given
- experimentSummary: ECL multispot (MSD) assay, antigen spotted on plate, 20 nM Fab;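 note: purified Fab bound to plate-spotted antigen for 1 h at 20 °C, labelled detection antibody added, ratio of antigen ECL signal to same-well blank, ratio ≥4 counted as binder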
endpointName: ECL signal/blank ratio (read-out not given)
Give bare numbers.

INPUT: For the binder Fab VH3-23_IGHD2-21*01>3_IGHJ6*01 H100E/S108P/Y113G D62A & V2-13_IGLJ2*01 (Fab, V domains shown, Tested as a Fab made in E. coli; also called EPG D62A) VH: EVQLLESGGGLVQPGGSLRLSCAASGFTFSSYAMSWVRQAPGKGLEWVSSISGSGGSTYYAASVKGRFTISRDNSKNTLYLQMNSLRAEDTAVYYCAKEEIVVVIAIPYYYYGYGMDVWGQGTLVTVSS VL: SSELTQDPAVSVALGQTVRITCQGDSLRSYYASWYQQKPGQAPVLVIYGKNNRPSGIPDRFSGSSSGNTASLTITGAQAEDEADYYCNSRDSSGNHLVVFGGGTKLTVL , what ECL signal/blank ratio (read-out not given) is on record?
OUTPUT: 11.6
